For each of the binders below, state its % of Normalized, TF/FVIIa/FX complex assay (FX 5 nM), Ab 25 nM.
Tgt: recombinant human TFPI (tissue factor pathway inhibitor) (human, UniProt P10646 29-304)
Method description: cell-based or functional assay
Report only the number, with the unit % understood.

Query: Dear colleague, I am looking for the recorded % of Normalized, TF/FVIIa/FX complex assay (FX 5 nM), Ab 25 nM of the following binder: clone 2 (antibody, V domains shown) VH: EVQLVESGGGLVKPGGSLRLSCAASGFTFSSYAMNWVRQAPGKGLEWVSTITTGGSYTYYADSVEGRFTISRDNAKNSLYLQMNSLRAEDTAVYYCARQDGNFLMDYWGQGTLVTVSS VL: DVVMTQTPLSLPVTLGQPASISCKSSPSLLDIDGKTYLNWLQQRPGQSPKRLIYLVSKLDSGVPDRFTGSGSGTDFTLKISRVEAEDVGVYYCWQGTHFPFTFGQGTKVEIKR
Reply: 51.4

Query: Which measured % of Normalized, TF/FVIIa/FX complex assay (FX 5 nM), Ab 25 nM value corresponds to clone 1023 (antibody, V domains shown, scFv on yeast at selection; human IgG4/kappa IgG as purified) VH: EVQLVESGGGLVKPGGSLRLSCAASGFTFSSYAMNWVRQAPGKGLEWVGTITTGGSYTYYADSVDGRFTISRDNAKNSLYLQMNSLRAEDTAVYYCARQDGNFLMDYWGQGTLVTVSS VL: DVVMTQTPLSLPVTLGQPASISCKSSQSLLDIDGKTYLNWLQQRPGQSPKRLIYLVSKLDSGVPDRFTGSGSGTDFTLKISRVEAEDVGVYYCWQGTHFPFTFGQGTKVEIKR ?
Reply: 26.6

Query: Can you share its % of Normalized, TF/FVIIa/FX complex assay (FX 5 nM), Ab 25 nM? I mean this binder: clone 3 (antibody, V domains shown) VH: EVQLVESGGGLVKPGGSLRLSCAASGFTFSSYAMNWVRQAPGKGLEWVGTITTGGSHTYYADSVDGRFTISRDNAKNSLYLQMNSLRAEDTAVYYCARQDGNFLMDYWGQGTLVTVSS VL: DVVMTQTPLSLPVTLGQPASISCKSSPSLLDVDGKTYLNWLQQRPGQSPKRLIYLVSKLDSGVPDRFTGSGSGTDFTLKISRVEAEDVGVYYCWQGTHFPFTFGQGTKVEIKR
Reply: 65.1

Query: % of Normalized, TF/FVIIa/FX complex assay (FX 5 nM), Ab 25 nM; subject: clone 8 (antibody, V domains shown) VH: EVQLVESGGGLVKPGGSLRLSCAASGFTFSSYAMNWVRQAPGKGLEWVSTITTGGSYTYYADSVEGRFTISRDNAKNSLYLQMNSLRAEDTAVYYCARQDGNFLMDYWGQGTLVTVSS VL: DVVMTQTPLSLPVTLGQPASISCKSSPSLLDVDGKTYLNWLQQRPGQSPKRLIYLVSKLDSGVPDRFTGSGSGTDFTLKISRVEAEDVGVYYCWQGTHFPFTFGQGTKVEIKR
Reply: 48.3
